# Tested on: cotton plants (Delta Pine variety)
# Measurement Notes: Defoliation of young cotton plants under greenhouse conditions, Example A
# Type: in vivo
# Setup Conditions: 0.062 kg/ha, 12 days after application, day/night 23/16° C., as a percentage of the control
Provide the reported % defoliation of each item.
Give bare numbers, in %.

INSERT INTO measurements (compound, metric, unit_name, recorded_result) VALUES
  ('CCOC(=O)C(Cl)=Cc1cc(N2C(=O)C3=C(CCCC3)C2=O)ccc1Cl', '% defoliation', '%', 55);

Hi, could you look up % defoliation for each item in my list?
1. COC(=O)C(Br)=Cc1cc(N2C(=O)C3=C(CCCC3)C2=O)ccc1Cl
2. O=C(Nc1ccccc1)Nc1cnns1 [Comparative agent I, N-phenyl-N′-(1,2,3-thiadiazol-5-yl)-urea, reference compound]
3. COC(=O)C(C)=Cc1cc(N2C(=O)C3=C(CCCC3)C2=O)ccc1Cl
4. O=C1C2=C(CCCC2)C(=O)N1c1cc(OCC2CCCOC2)c(Cl)cc1F (stereo not drawn)

1: 26; 2: 13; 3: 67; 4: 83

Fill in % defoliation for CC1CSC(c2cc(N3C(=O)C4=C(CCCC4)C3=O)ccc2Cl)S1 (stereo not drawn) tested with cotton plants (Delta Pine variety).
50
